tested on: CAL-51; assay: normalised response (% of control), CellTox Green; higher = less cell death (100 = DMSO, 0 = benzethonium chloride kill control); details: incubation time: 72 h
assay.readout: normalised response (%)
Value expressed in %; do not type the unit.

Input line: Item CS(=O)(=O)CCNCc1ccc(-c2ccc3ncnc(Nc4ccc(OCc5cccc(F)c5)c(Cl)c4)c3c2)o1 [Lapatinib] (10 nM) has what recorded normalised response?
Output line: 99.4

Input line: Give its normalised response value. Item: Cn1c(=O)c(F)c(Nc2ccc(I)cc2F)c2c(=O)n(C[C@@H](O)CO)cnc21 [TAK-733] (100 nM)
Output line: 80.9

Input line: What normalised response value was documented for this compound, CN1CCN(c2ccc3nc(-c4c(N)c5c(F)cccc5[nH]c4=O)[nH]c3c2)CC1 [Dovitinib] (10000 nM) ?
Output line: 118

Input line: What value of measured normalised response is listed for COc1cc(Nc2ncc(F)c(Nc3ccc4c(n3)NC(=O)C(C)(C)O4)n2)cc(OC)c1OC [Tamatinib] (10000 nM) ?
Output line: 83.7

----------
system: DU-4475; assay: drug sensitivity score (DSS), CellTiter-Glo (DSS (AUC-based score)); higher = stronger drug effect (viability inhibition or cytotoxicity); extreme values may be limits of the assay; conditions: incubation time: 72 h
Assign drug sensitivity score to each entry below.
Output spec: single numeric token, no unit.

Input line: // drug sensitivity score lookup, key: Cn1c(=O)c(F)c(Nc2ccc(I)cc2F)c2c(=O)n(C[C@@H](O)CO)cnc21
Output line: 25.4

Input line: # lookup: drug sensitivity score of CC(C)C[C@H](NC(=O)[C@H](Cc1ccccc1)NC(=O)c1cnccn1)B(O)O
Output line: 17.5

Input line: Which drug sensitivity score reading was recorded for the compound COc1c(C)cnc(Cn2cnc3c(Cl)nc(N)nc32)c1C ?
Output line: 17.8

Input line: Entry Cn1cnc2c(F)c(Nc3ccc(Br)cc3F)c(C(=O)NOCCO)cc21 has what drug sensitivity score?
Output line: 12.5

Input line: Reported drug sensitivity score, compound COc1cccc2c1C(=O)c1c(O)c3c(c(O)c1C2=O)C[C@@](O)(C(C)=O)C[C@@H]3O[C@H]1C[C@H](N)[C@H](O)[C@H](C)O1 : ____
Output line: 7.7

----------
Exercise: for every item that follows, state its recorded normalised response.
tested on: DU-4475; assay: normalised response (% of control), CellTiter-Glo; higher = more viable cells (100 = DMSO, 0 = benzethonium chloride kill control); settings: incubation time: 72 h
Express it in %; write the number only.

Input line: Bench note: what normalised response did COC1=C2C[C@@H](C)C[C@H](OC)[C@H](O)[C@@H](C)/C=C(\C)[C@H](OC(N)=O)[C@@H](OC)/C=C\C=C(/C)C(=O)NC(=CC1=O)C2=O [Geldanamycin] (10000 nM) show?
Output line: 0.14

Input line: Which normalised response is reported for this compound? O=C(c1ccc(OCCN2CCCCC2)cc1)c1c(-c2ccc(O)cc2)sc2cc(O)ccc12 [Raloxifene] (10000 nM)
Output line: 90.1

Input line: Any idea what its normalised response is? The compound is COc1cccc2c1C(=O)c1c(O)c3c(c(O)c1C2=O)C[C@@](O)(C(C)=O)C[C@@H]3O[C@H]1C[C@H](N)[C@H](O)[C@H](C)O1 [Daunorubicin] (1000 nM)
Output line: 0.14
